- PROTOCOL_DETAILS: in vivo
- RUN_PARAMETERS: male, BALB/c nu/nu, mouse, iv, 500 pmol, total radioactivity, SUV tumor
Non-standard residues stand in square brackets, D forms with d. Residues, ends and D or L forms follow the SMILES beside them. *: point of attachment. DOTA = O=C(O)CN1CCN(CC(=O)O)CCN(CC(=O)*)CCN(CC(=O)O)CC1; EuK = O=C(O)CC[C@H](NC(=O)N[C@@H](CCCCN*)C(=O)O)C(=O)O; 2Nal = N[C@@H](Cc1ccc2ccccc2c1)C(=O)O; Trx = NC[C@H]1CC[C@H](C(=O)O)CC1
ENDPOINT: SUV at 2 h (SUV)
Answers are plain numbers, in SUV.

>>> endpoint_result("O=C(O)CC[C@H](NC(=O)N[C@@H](CCCCNC(=O)[C@H](Cc1ccc2ccccc2c1)NC(=O)[C@H]1CC[C@H](CNC(=O)[C@H](Cc2c[nH]cn2)NC(=O)[C@H](CCC(=O)O)NC(=O)[C@H](Cc2c[nH]cn2)NC(=O)[C@H](CCC(=O)O)NC(=O)[C@H](Cc2c[nH]cn2)NC(=O)[C@H](CCC(=O)O)NC(=O)[C@H](Cc2c[nH]cn2)NC(=O)[C@H](CCC(=O)O)NC(=O)CN2CCN(CC(=O)O)CCN(CC(=O)O)CCN(CC(=O)O)CC2)CC1)C(=O)O)C(=O)O [PS5, EuK-NaI-ChX-(HE)4-DOTA] ({DOTA}-EHEHEHEH[Trx][2Nal]-EuK)")
0.94

Dear colleague, could you please provide SUV at 2 h for the compounds listed below?
1. O=C(O)CC[C@H](NC(=O)N[C@@H](CCCCNC(=O)[C@H](Cc1ccc2ccccc2c1)NC(=O)[C@H](CCC(=O)O)NC(=O)[C@H](CCC(=O)O)NC(=O)[C@H](CCC(=O)O)NC(=O)[C@H]1CC[C@H](CNC(=O)CN2CCN(CC(=O)O)CCN(CC(=O)O)CCN(CC(=O)O)CC2)CC1)C(=O)O)C(=O)O [PS7, EuK-NaI-E3-ChX-DOTA] ({DOTA-Trx}-EEE[2Nal]-EuK)
2. O=C(O)CC[C@H](NC(=O)N[C@@H](CCCCNC(=O)[C@H](Cc1ccc2ccccc2c1)NC(=O)[C@H](Cc1c[nH]cn1)NC(=O)[C@H](CCC(=O)O)NC(=O)[C@H](Cc1c[nH]cn1)NC(=O)[C@H](CCC(=O)O)NC(=O)[C@H](Cc1c[nH]cn1)NC(=O)[C@H](CCC(=O)O)NC(=O)[C@H]1CC[C@H](CNC(=O)CN2CCN(CC(=O)O)CCN(CC(=O)O)CCN(CC(=O)O)CC2)CC1)C(=O)O)C(=O)O [PS2, EuK-NaI-(HE)3-ChX-DOTA] ({DOTA-Trx}-EHEHEH[2Nal]-EuK)

[0.56, 0.74]

----------
- PROTOCOL_DETAILS: in vivo
- RUN_PARAMETERS: male, BALB/c nu/nu, mouse, iv, 500 pmol, total radioactivity, SUV tumor
Non-standard residues stand in square brackets, D forms with d. Residues, ends and D or L forms follow the SMILES beside them. *: point of attachment. DOTA = O=C(O)CN1CCN(CC(=O)O)CCN(CC(=O)*)CCN(CC(=O)O)CC1; EuK = O=C(O)CC[C@H](NC(=O)N[C@@H](CCCCN*)C(=O)O)C(=O)O; 2Nal = N[C@@H](Cc1ccc2ccccc2c1)C(=O)O; Trx = NC[C@H]1CC[C@H](C(=O)O)CC1
Consider the following molecules; for each one, report its SUV at 1 h.
Numbers only, in SUV.

Example cases with answers are listed next.
>>> endpoint_result("O=C(O)CC[C@H](NC(=O)N[C@@H](CCCCNC(=O)[C@H](Cc1c[nH]cn1)NC(=O)[C@H](CCC(=O)O)NC(=O)[C@H](Cc1c[nH]cn1)NC(=O)[C@H](CCC(=O)O)NC(=O)[C@H](Cc1c[nH]cn1)NC(=O)[C@H](CCC(=O)O)NC(=O)[C@H](Cc1ccc2ccccc2c1)NC(=O)[C@H]1CC[C@H](CNC(=O)CN2CCN(CC(=O)O)CCN(CC(=O)O)CCN(CC(=O)O)CC2)CC1)C(=O)O)C(=O)O [PS1, EuK-(HE)3-NaI-ChX-DOTA] ({DOTA-Trx}-[2Nal]EHEHEH-EuK)")
0.43
>>> endpoint_result("O=C(O)CC[C@H](NC(=O)N[C@@H](CCCCNC(=O)[C@H](Cc1c[nH]cn1)NC(=O)[C@H](Cc1c[nH]cn1)NC(=O)[C@H](Cc1c[nH]cn1)NC(=O)[C@H](Cc1ccc2ccccc2c1)NC(=O)[C@H]1CC[C@H](CNC(=O)CN2CCN(CC(=O)O)CCN(CC(=O)O)CCN(CC(=O)O)CC2)CC1)C(=O)O)C(=O)O [PS9, EuK-H3-NaI-ChX-DOTA] ({DOTA-Trx}-[2Nal]HHH-EuK)")
0.21

Next:
Request the reported SUV at 1 h associated with O=C(O)CC[C@H](NC(=O)N[C@@H](CCCCNC(=O)[C@H](Cc1ccc2ccccc2c1)NC(=O)[C@H]1CC[C@H](CNC(=O)[C@H](Cc2c[nH]cn2)NC(=O)[C@H](Cc2c[nH]cn2)NC(=O)[C@H](Cc2c[nH]cn2)NC(=O)CN2CCN(CC(=O)O)CCN(CC(=O)O)CCN(CC(=O)O)CC2)CC1)C(=O)O)C(=O)O [PS11, EuK-NaI-ChX-H3-DOTA] ({DOTA}-HHH[Trx][2Nal]-EuK) 0.82
